Hello, the source for this data is patent US20240279218A1, in case you need it.

target-of-assay: h-GABA-A α5β3γ2 (Homo sapiens (Human), UniProt P18507+P31644)
protocol-description: [3H]flumazenil competition binding assay, membranes of HEK293 cells expressing human GABAA receptors
conditions: displacement of [3H]flumazenil 0.5 nM, HEK293 cells expressing human receptors, mean of two determinations; read-out: Ki h-GABA-A α5β3γ2
reported-metric: Ki (nM)
Note: unit nM is implicit; provide only the numeric part.

Worked examples, 3 compounds total:
>>> data_value("Cc1ccc(-c2noc(C)c2COc2ccc(C(=O)N[C@@H]3CCOC[C@H]3O)cn2)cn1")
20.8
>>> data_value("Cc1ccc(-c2noc(C)c2COc2ccc(C(=O)N3CC(F)C3)nn2)cn1")
7.2
>>> data_value("Cc1ccc(-c2noc(C)c2COc2ccc(C(=O)N3C4COCC3C4)nn2)cn1")
6

Next compound, please.
// query Which Ki reading was recorded for the compound Cc1onc(-c2ccc(C(F)(F)F)nc2)c1COc1ccc(C(=O)NC2CCOCC2)nn1 ?
// result 70.7

====

target-of-assay: h-GABA-A α5β3γ2 (Homo sapiens (Human), UniProt P18507+P31644)
protocol-description: [3H]flumazenil competition binding assay, membranes of HEK293 cells expressing human GABAA receptors
conditions: displacement of [3H]flumazenil 0.5 nM, HEK293 cells expressing human receptors, mean of two determinations; read-out: Ki h-GABA-A α5β3γ2
The reader will find reported Ki values listed item by item below.
Reply with just the number (in nM).

>>> data_value("Cc1ccc(-c2noc(C)c2COc2ccc(C(=O)NC3(C)CC3)nn2)cn1 [Example 76]")
9
>>> data_value("Cc1ccc(-c2noc(C3CC3)c2COc2ccc(C(=O)N[C@H]3CCOC3)nn2)cn1 [Example 182]")
59.6

// query Query for h-GABA-A α5β3γ2 (Homo sapiens (Human), UniProt P18507+P31644): what Ki does the record show for COc1ccc(-c2noc(C)c2COc2ccc(C(=O)NC(C)C)cn2)cn1 [Example 138] ?
// result 93.8

// query Give recorded Ki with h-GABA-A α5β3γ2 (Homo sapiens (Human), UniProt P18507+P31644) for the following compound: Cc1ccc(-c2noc(C)c2COc2cc3c(cn2)C(=O)N(C2CCOCC2)C3)cn1 [Example 22]
// result 10.8

// query Which measured Ki belongs to Cc1ccc(-c2noc(C)c2COc2ccc(C(=O)N[C@@H]3CCCC(F)(F)[C@H]3O)cn2)cn1 [Example 131] , tested on h-GABA-A α5β3γ2 (Homo sapiens (Human), UniProt P18507+P31644)?
// result 26

// query Item: Cc1ccc(-c2noc(C)c2COc2ccc(C(=O)N[C@H]3CC[C@@](C)(O)CC3)nn2)cn1 [Example 148] Test system: h-GABA-A α5β3γ2 (Homo sapiens (Human), UniProt P18507+P31644) Read-out: Ki Value: ?
// result 13.8

// query Find the measured Ki: item Cc1ccc(-c2noc(C)c2COc2ccc(C(=O)NC3CCOCC3)cn2)cn1 [Example 1] , target or system h-GABA-A α5β3γ2 (Homo sapiens (Human), UniProt P18507+P31644).
// result 4.8

// query API: value(readout=Ki, system=h-GABA-A α5β3γ2 (Homo sapiens (Human), UniProt P18507+P31644)) for record CCC[C@@H](CO)NC(=O)c1ccc(OCc2c(-c3ccc(C)nc3)noc2C(F)F)nc1 [Example 125]
// result 59

// query Entry Cc1ccc(-c2noc(C)c2COc2ccc(C(=O)NC3(C)CCS(=O)(=O)CC3)nn2)cn1 [Example 111] , system h-GABA-A α5β3γ2 (Homo sapiens (Human), UniProt P18507+P31644): what Ki was measured?
// result 4.6

// query Ki of Cc1ccc(-c2noc(C)c2COc2ccc(C(=O)N3CC(C)(O)C3)nn2)cn1 [Example 56] on h-GABA-A α5β3γ2 (Homo sapiens (Human), UniProt P18507+P31644)?
// result 7.9

// query # value lookup — system h-GABA-A α5β3γ2 (Homo sapiens (Human), UniProt P18507+P31644), readout Ki, item Cc1ccc(-c2noc(C)c2COc2ccc(C(=O)N[C@H]3C[C@H](OCC(F)F)C3)nn2)cn1 [Example 170]
// result 8.8

// query Param readout = Ki; param system = h-GABA-A α5β3γ2 (Homo sapiens (Human), UniProt P18507+P31644); param query = Cc1ccc(-c2noc(C)c2COc2ccc(C(=O)N[C@H]3CCS(=O)(=O)C3)cn2)cn1 [Example 19] ; response: value
// result 5.2

// query Find Ki (h-GABA-A α5β3γ2 (Homo sapiens (Human), UniProt P18507+P31644)) for the entry Cc1ccc(-c2noc(C3CC3)c2COc2ccc(C(=O)NC3CC4(COC4)C3)nn2)cn1 [Example 181]
// result 68

// query Under h-GABA-A α5β3γ2 (Homo sapiens (Human), UniProt P18507+P31644): Ki value of Cc1ccc(-c2noc(CF)c2COc2ccc(C(=O)NC3CCOCC3)nn2)cn1 [Example 168] ?
// result 32.4

// query Value wanted: Ki (h-GABA-A α5β3γ2 (Homo sapiens (Human), UniProt P18507+P31644)) of entry CCC[C@@H](CO)NC(=O)c1ccc(OCc2c(-c3ccc(N(C)C)nc3)noc2C)nc1 [Example 141]
// result 49.5

// query Look up Ki with h-GABA-A α5β3γ2 (Homo sapiens (Human), UniProt P18507+P31644) for this compound: Cc1ccc(-c2noc(C)c2COc2cnc(C(=O)NC3COC3)cn2)cn1 [Example 77]
// result 5.2

// query Under h-GABA-A α5β3γ2 (Homo sapiens (Human), UniProt P18507+P31644): Ki value of Cc1ccc(-c2noc(C)c2COc2ccc(C(=O)NC3CC(F)(F)C3)nn2)cn1 [Example 42] ?
// result 8.9

// query # value lookup — system h-GABA-A α5β3γ2 (Homo sapiens (Human), UniProt P18507+P31644), readout Ki, item Cc1ccc(-c2noc(C)c2COc2ccc(C(=O)N[C@H]3C[C@@H](OC(F)F)C3)nn2)cn1 [Example 173]
// result 15.6

// query Ki of Cc1ccc(-c2noc(C)c2COc2ccc(C(=O)NC3(C)CCC3)nn2)cn1 [Example 118] on h-GABA-A α5β3γ2 (Homo sapiens (Human), UniProt P18507+P31644)?
// result 12.3
